# target-entity: PRC2 5-mer MT (RNA-binding mutant EZH2) (UniProt Q15910;Q15022;O75530;Q09028;Q6ZN18 1-746;1-739;1-441;1-425;1-517, F32A;R34A;D36A;K39A;P489N;R490A;K491A;K492I;K493R;R494S)
# experiment-summary: EMSA
reported-property: pKd
Just so you know, pKd here is -log10 of the concentration in molar units; reply with that number alone.

Query :: Item under review: GGAAGGAAGGAAGGAAGGAAGGAAGGAAGGAAGGAAGGAA (structured_RNA) [(GGAA)10 G4 RNA 40-mer] . Reported pKd?
Result :: 7.92

Where do the numbers come from? From paper PMC10353856.
